Target: [Pyruvate dehydrogenase (acetyl-transferring)] kinase isozyme 1, mitochondrial (Homo sapiens)
Assay: Inhibition of PDK1 (unknown origin) at 1.5 uM incubated for 30 mins followed by substrate addition measured after 60 mins in presence of ATP by ADP-Glo luminescent assay relative to control
Details: time 90.0 min, values are per cent of control
assay metric: residual activity (%)

INSERT INTO results (smiles_repr, units_symbol, recorded_measurement) VALUES
  ('COc1ccc2[nH]cc(-c3nnc(N)nc3-c3c[nH]c4ncc(Br)cc34)c2c1', '%', 40),
  ('COc1ccc2[nH]cc(-c3nc(N)nnc3-c3c[nH]c4ncc(Br)cc34)c2c1', '%', 40),
  ('Cn1cc(-c2nnc(N)nc2-c2c[nH]c3ccccc23)c2cc(Br)cnc21', '%', 40),
  ('Cn1cc(-c2nc(N)nnc2-c2c[nH]c3ccccc23)c2cccnc21', '%', 40),
  ('Nc1nnc(-c2c[nH]c3ncccc23)c(-c2c[nH]c3ccc(Br)cc23)n1', '%', 40),
  ('COc1ccc2[nH]cc(-c3nnc(N)nc3-c3cn(C)c4ncc(Br)cc34)c2c1', '%', 0),
  ('Cn1cc(-c2nc(N)nnc2-c2c[nH]c3ccccc23)c2cc(Br)cnc21', '%', 40),
  ('Cn1cc(-c2nc(N)nnc2-c2c[nH]c3ccc(Br)cc23)c2cc(Br)cnc21', '%', 0),
  ('Cn1cc(-c2nnc(N)nc2-c2c[nH]c3ccccc23)c2cccnc21', '%', 40),
  ('Nc1nnc(-c2c[nH]c3ccc(F)cc23)c(-c2c[nH]c3ncc(Br)cc23)n1', '%', 40),
  ('Nc1nnc(-c2c[nH]c3ncc(Br)cc23)c(-c2c[nH]c3ccc(Br)cc23)n1', '%', 40),
  ('Cn1cc(-c2nnc(N)nc2-c2c[nH]c3ccc(F)cc23)c2cccnc21', '%', 40),
  ('Nc1nnc(-c2c[nH]c3ccccc23)c(-c2c[nH]c3ncccc23)n1', '%', 40),
  ('Cn1cc(-c2nc(N)nnc2-c2c[nH]c3ccc(F)cc23)c2cccnc21', '%', 40),
  ('Nc1nnc(-c2c[nH]c3ncccc23)c(-c2c[nH]c3ccc(F)cc23)n1', '%', 40),
  ('Cn1cc(-c2nnc(N)nc2-c2c[nH]c3ccc(Br)cc23)c2cc(Br)cnc21', '%', 60),
  ('Cn1cc(-c2nc(N)nnc2-c2c[nH]c3ccc(F)cc23)c2cc(Br)cnc21', '%', 60),
  ('Nc1nnc(-c2c[nH]c3ccc(Br)cc23)c(-c2c[nH]c3ncccc23)n1', '%', 40),
  ('Cn1cc(-c2nnc(N)nc2-c2c[nH]c3ccc(F)cc23)c2cc(Br)cnc21', '%', 0);

----------
Recorded log10 of IC50 values for a group of molecules are listed next.
Tested on: PSN1
Experiment: Antiproliferative activity against human PSN1 cells expressing KRAS mutant cultured as 2D spheroids assessed as inhibition of cell growth measured after 72 hrs by MTT assay
Format: functional, cell-based
Conditions: PSN1, 72 h
assay metric: log10 of IC50 (log10 of the value in µM)

INSERT INTO assay_data (smiles_repr, assay_metric, recorded_measurement) VALUES
  ('Nc1nnc(-c2c[nH]c3ncc(Br)cc23)c(-c2c[nH]c3ccc(Br)cc23)n1', 'log10 of IC50', 0.66),
  ('Nc1ccn([C@@H]2O[C@H](CO)[C@@H](O)C2(F)F)c(=O)n1', 'log10 of IC50', -1.70),
  ('Cn1cc(-c2nnc(N)nc2-c2c[nH]c3ccc(Br)cc23)c2cc(Br)cnc21', 'log10 of IC50', 0.11),
  ('Cn1cc(-c2nc(N)nnc2-c2c[nH]c3ccc(F)cc23)c2cccnc21', 'log10 of IC50', 0.51),
  ('COc1ccc2[nH]cc(-c3nnc(N)nc3-c3cn(C)c4ncc(Br)cc34)c2c1', 'log10 of IC50', 0.00),
  ('Cn1cc(-c2nnc(N)nc2-c2c[nH]c3ccc(F)cc23)c2cc(Br)cnc21', 'log10 of IC50', -0.22),
  ('Cn1cc(-c2nc(N)nnc2-c2c[nH]c3ccc(Br)cc23)c2cccnc21', 'log10 of IC50', 0.56),
  ('COc1ccc2[nH]cc(-c3nnc(N)nc3-c3c[nH]c4ncc(Br)cc34)c2c1', 'log10 of IC50', 0.53),
  ('Cn1cc(-c2nc(N)nnc2-c2c[nH]c3ccc(F)cc23)c2cc(Br)cnc21', 'log10 of IC50', 0.36),
  ('COc1ccc2[nH]cc(-c3nc(N)nnc3-c3c[nH]c4ncc(Br)cc34)c2c1', 'log10 of IC50', 0.67),
  ('COc1ccc2[nH]cc(-c3nc(N)nnc3-c3cn(C)c4ncc(Br)cc34)c2c1', 'log10 of IC50', 0.41),
  ('Nc1nnc(-c2c[nH]c3ccc(F)cc23)c(-c2c[nH]c3ncc(Br)cc23)n1', 'log10 of IC50', 0.11),
  ('Nc1nnc(-c2c[nH]c3ncccc23)c(-c2c[nH]c3ccc(Br)cc23)n1', 'log10 of IC50', 0.20),
  ('Nc1nnc(-c2c[nH]c3ccc(F)cc23)c(-c2c[nH]c3ncccc23)n1', 'log10 of IC50', 0.20),
  ('Cn1cc(-c2nc(N)nnc2-c2c[nH]c3ccccc23)c2cc(Br)cnc21', 'log10 of IC50', 0.67),
  ('Cn1cc(-c2nc(N)nnc2-c2c[nH]c3ccccc23)c2cccnc21', 'log10 of IC50', 0.32),
  ('Cn1cc(-c2nnc(N)nc2-c2c[nH]c3ccc(Br)cc23)c2cccnc21', 'log10 of IC50', 0.46),
  ('Nc1nnc(-c2c[nH]c3ccccc23)c(-c2c[nH]c3ncccc23)n1', 'log10 of IC50', 0.26),
  ('COc1ccc2[nH]cc(-c3nnc(N)nc3-c3cn(C)c4ncccc34)c2c1', 'log10 of IC50', 0.32);
